# credit: the supplement of paper PMC7214452

Property: normalized area under the dose-response curve; scope: individual compounds
test system: SU-DHL2 (cancer type: DLBCL); experiment: normalized area under the dose-response curve (viability relative to DMSO control) (fraction); higher = less sensitive (more viable cells); conditions: exposure time not given
The answer should be a number; do not append a unit.

Exercise: Please report the recorded normalized area under the dose-response curve for Nc1cc(C(F)(F)F)c(-c2cc(N3CCOCC3)nc(N3CCOCC3)n2)cn1 [Buparlisib] .
Solution: 0.689

====

system: AMO1 (cancer type: MM); assay: normalized area under the dose-response curve (viability relative to DMSO control) (fraction); higher = less sensitive (more viable cells); conditions: exposure time not given
The entries below are paired with their reported normalized area under the dose-response curve.

| CHEMICAL STRUCTURE | OBSERVED MEASUREMENT |
| --- | --- |
| CC(=O)O[C@H]1C(=O)[C@@]2(C)[C@H]([C@H](OC(=O)c3ccccc3)[C@]3(O)C[C@H](OC(=O)[C@H](O)[C@@H](NC(=O)c4ccccc4)c4ccccc4)C(C)=C1C3(C)C)[C@]1(OC(C)=O)CO[C@@H]1C[C@@H]2O | 0.595 |
| CCCS(=O)(=O)Nc1ccc(F)c(C(=O)c2c[nH]c3ncc(-c4ccc(Cl)cc4)cc23)c1F | 0.808 |

Exercise: GET /values?readout=normalized area under the dose-response curve&system=AMO1 (cancer type: MM)&item= CC(=O)c1c(C)c2cnc(Nc3ccc(N4CCNCC4)cn3)nc2n(C2CCCC2)c1=O
Solution: 0.529

====

Readings of normalized area under the dose-response curve for the listed molecules
system: OCI-MY5 (cancer type: MM); assay: normalized area under the dose-response curve (viability relative to DMSO control) (fraction); higher = less sensitive (more viable cells); details: exposure time not given
Structures can show the parent of a compound that is named as a salt.
Form: value (number only, do not type unit).

| MOLECULE | OBSERVED MEASUREMENT |
| --- | --- |
| Cc1sc2c(c1C)C(c1ccc(Cl)cc1)=N[C@@H](CC(=O)OC(C)(C)C)c1nnc(C)n1-2 [jq1] | 0.488 |
| N[C@@H](Cc1ccc(N(CCCl)CCCl)cc1)C(=O)O [Melphalan hydrochloride] | 0.643 |
| CO[C@H]1C[C@@H]2CC[C@@H](C)[C@@](O)(O2)C(=O)C(=O)N2CCCC[C@H]2C(=O)O[C@H]([C@H](C)C[C@@H]2CC[C@@H](OCCO)[C@H](OC)C2)CC(=O)[C@H](C)/C=C(\C)[C@@H](O)[C@@H](OC)C(=O)[C@H](C)C[C@H](C)/C=C/C=C/C=C/1C [Everolimus] | 0.676 |
| Cc1ccc(-n2nc(C(C)(C)C)cc2NC(=O)Nc2ccc(OCCN3CCOCC3)c3ccccc23)cc1 [Doramapimod] | 0.693 |

Now take the following molecule into account.
Exercise: // normalized area under the dose-response curve lookup, key: Cn1ncc(Cl)c1-c1cc(C(=O)N[C@H](CN)Cc2cccc(F)c2)sc1Cl [Afuresertib]
Solution: 0.398

====

tested on: KMS11 (cancer type: MM); assay: normalized area under the dose-response curve (viability relative to DMSO control) (fraction); higher = less sensitive (more viable cells); conditions: exposure time not given
Label rule, in plain words: normalized area under the dose-response curve of 0.5 and up is rule met, under 0.5 is rule not met.

Study these solved cases before continuing.
| CHEMICAL STRUCTURE | LABEL VALUE |
| --- | --- |
| Cc1ccc(C(=O)Nc2ccc(CN3CCN(C)CC3)c(C(F)(F)F)c2)cc1C#Cc1cnc2cccnn12 | rule not met |
| CC(=O)Nc1cccc(-n2c(=O)n(C3CC3)c(=O)c3c(Nc4ccc(I)cc4F)n(C)c(=O)c(C)c32)c1 | rule met |
| Cc1cc(Nc2ncc(Cl)c(Nc3ccccc3S(=O)(=O)C(C)C)n2)c(OC(C)C)cc1C1CCNCC1 | rule not met |

Exercise: Quick check: does C/C=C1\NC(=O)[C@H]2CSSCC/C=C/[C@H](CC(=O)N[C@H](C(C)C)C(=O)N2)OC(=O)[C@H](C(C)C)NC1=O have normalized area under the dose-response curve greater than or equal to 0.5?
Solution: rule not met

Exercise: Cool, now CCN(CC)CCNC(=O)c1c(C)[nH]c(/C=C2\C(=O)Nc3ccc(F)cc32)c1C
Solution: rule met

Exercise: Please answer likewise for O=C(c1ccc(F)c(F)c1Nc1ccc(I)cc1F)N1CC(O)([C@@H]2CCCCN2)C1
Solution: rule met

Exercise: Also check Nc1nc(Cl)nc2c1ncn2[C@H]1C[C@H](O)[C@@H](CO)O1
Solution: rule met
